These measurements were taken from patent US10213415B2.

Exercise: for every item that follows, state its recorded Ki.
Target: human mu opioid receptor (Homo sapiens)
Construct: purchased Perkin Elmer RBHOMM400UA; host or cells: Chinese Hamster Ovary cells (recombinant expression)
Sequence (P35372 whole entry): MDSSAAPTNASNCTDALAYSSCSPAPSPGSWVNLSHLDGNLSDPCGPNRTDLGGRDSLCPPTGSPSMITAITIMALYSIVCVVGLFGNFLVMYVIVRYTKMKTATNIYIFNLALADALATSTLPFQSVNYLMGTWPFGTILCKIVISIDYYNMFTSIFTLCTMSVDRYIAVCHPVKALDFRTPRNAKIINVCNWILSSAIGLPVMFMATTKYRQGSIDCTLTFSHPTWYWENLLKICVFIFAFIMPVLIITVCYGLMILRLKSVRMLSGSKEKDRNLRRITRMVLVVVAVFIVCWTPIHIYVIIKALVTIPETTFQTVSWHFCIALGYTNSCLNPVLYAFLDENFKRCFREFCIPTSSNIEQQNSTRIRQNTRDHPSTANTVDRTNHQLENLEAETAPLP
Experiment: Human Mu Opioid Receptor Binding Assay (CHO membranes, 3H-Damgo)
Details: read-out: hKi μ

For the compound COc1ccc(CN(C(=O)[C@@H](N)Cc2c(C)cc(C(N)=O)cc2C)[C@@H](C)c2nc(-c3cccc(C(=O)O)c3)c[nH]2)cc1OC , give its measured Ki value. 63 nM

For the compound Cc1cc(C(N)=O)cc(C)c1C[C@H](N)C(=O)N(Cc1cccc(C(=O)O)c1)[C@@H](C)c1nc(-c2ccccc2)c[nH]1 , give its measured Ki value. 1.92 nM

For the compound Cc1cc(O)cc(C)c1C[C@H](N)C(=O)N(C(C)C)[C@@H](COCc1ccccc1)c1nc(-c2ccccc2)c[nH]1 , give its measured Ki value. 104 nM

For the compound Cc1cc(O)cc(C)c1C[C@H](N)C(=O)N(Cc1nc(-c2ccc(C(N)=O)cc2)c(C)[nH]1)C(C)C , give its measured Ki value. 4.4 nM
